assay: Oral bioavailability in Sprague-Dawley rat at 10 mg/kg; format: ADME, organism-based; details: in vivo
Provide the reported bioavailability of each item.
Give the number; % is assumed, so skip it.

bioavailability reported for this compound O=C1O[C@@H](Cn2ccnn2)CN1c1ccc(N2CCN(Cc3ccc([N+](=O)[O-])o3)CC2)c(F)c1 : 103

bioavailability reported for this compound O=C1O[C@@H](Cn2ccnn2)CN1c1ccc(N2CCN(Cc3cccc([N+](=O)[O-])c3)CC2)c(F)c1 : 61.5

bioavailability reported for this compound Nc1ccc(CN2CCN(c3ccc(N4C[C@H](Cn5ccnn5)OC4=O)cc3F)CC2)cc1 : 43.8

bioavailability reported for this compound O=C1O[C@@H](Cn2ccnn2)CN1c1ccc(N2CCN(Cc3ccoc3)CC2)c(F)c1 : 62.7

---

system: Staphylococcus aureus; test: Antimicrobial activity against Staphylococcus aureus ATCC 29213 after 16 to 18 hrs by agar dilution method; assay type: functional
Provide the reported log10 MIC of each item.
Response schema: value (number) is log10 of MIC in units of µg/mL.

log10 MIC reported for this compound O=C1O[C@@H](Cn2ccnn2)CN1c1ccc(N2CCN(Cc3ccc([N+](=O)[O-])cc3)CC2)c(F)c1 : -0.30

log10 MIC reported for this compound Nc1ccccc1CN1CCN(c2ccc(N3C[C@H](Cn4ccnn4)OC3=O)cc2F)CC1 : -0.90

log10 MIC reported for this compound O=C1O[C@@H](Cn2ccnn2)CN1c1ccc(N2CCN(Cc3cccc([N+](=O)[O-])c3)CC2)c(F)c1 : -1.52

log10 MIC reported for this compound O=Cc1cccc(CN2CCN(c3ccc(N4C[C@H](Cn5ccnn5)OC4=O)cc3F)CC2)c1 : -0.60

log10 MIC reported for this compound O=C1O[C@@H](Cn2ccnn2)CN1c1ccc(N2CCN(Cc3cccnc3)CC2)c(F)c1 : -0.90

log10 MIC reported for this compound O=C1O[C@@H](Cn2ccnn2)CN1c1ccc(N2CCN(Cc3ccoc3)CC2)c(F)c1 : -2.10

log10 MIC reported for this compound Cc1ccsc1CN1CCN(c2ccc(N3C[C@H](Cn4ccnn4)OC3=O)cc2F)CC1 : 0.00

log10 MIC reported for this compound O=C1O[C@@H](Cn2ccnn2)CN1c1ccc(N2CCN(Cc3ccncc3)CC2)c(F)c1 : -0.30

log10 MIC reported for this compound O=Cc1ccc(CN2CCN(c3ccc(N4C[C@H](Cn5ccnn5)OC4=O)cc3F)CC2)cc1 : -2.10

log10 MIC reported for this compound CC(=O)NC[C@H]1CN(c2ccc(N3CCOCC3)c(F)c2)C(=O)O1 [LINEZOLID] : -0.30

log10 MIC reported for this compound O=C1O[C@@H](Cn2ccnn2)CN1c1ccc(N2CCN(Cc3ccco3)CC2)c(F)c1 : -1.22

log10 MIC reported for this compound O=C1O[C@@H](Cn2ccnn2)CN1c1ccc(N2CCN(Cc3ccc([N+](=O)[O-])o3)CC2)c(F)c1 : -1.22

log10 MIC reported for this compound O=C1O[C@@H](Cn2ccnn2)CN1c1ccc(N2CCN(Cc3ccc(Br)s3)CC2)c(F)c1 : -1.22

log10 MIC reported for this compound Cc1ccc(CN2CCN(c3ccc(N4C[C@H](Cn5ccnn5)OC4=O)cc3F)CC2)s1 : -0.90

log10 MIC reported for this compound CN[C@H](CC(C)C)C(=O)N[C@H]1C(=O)N[C@@H](CC(N)=O)C(=O)N[C@H]2C(=O)N[C@H]3C(=O)N[C@H](C(=O)N[C@H](C(=O)O)c4cc(O)cc(O)c4-c4cc3ccc4O)[C@H](O)c3ccc(c(Cl)c3)Oc3cc2cc(c3O[C@@H]2O[C@H](CO)[C@@H](O)[C@H](O)[C@H]2O[C@H]2C[C@](C)(N)[C@H](O)[C@H](C)O2)Oc2ccc(cc2Cl)[C@H]1O [VANCOMYCIN] : -0.90

log10 MIC reported for this compound O=C1O[C@@H](Cn2ccnn2)CN1c1ccc(N2CCN(Cc3ccc(Cl)o3)CC2)c(F)c1 : -0.90

---

test system: Staphylococcus aureus; experiment: Antimicrobial activity against methicillin-resistant Staphylococcus aureus 05-2 infected in iv dosed KunMing SPF mouse; assay type: functional
Provide the reported ED50 of each item.
Give the number; mg/kg is assumed, so skip it.

ED50 reported for this compound CC(=O)NC[C@H]1CN(c2ccc(N3CCOCC3)c(F)c2)C(=O)O1 : 8.45

ED50 reported for this compound O=C1O[C@@H](Cn2ccnn2)CN1c1ccc(N2CCN(Cc3cccc([N+](=O)[O-])c3)CC2)c(F)c1 : 11.2

ED50 reported for this compound O=C1O[C@@H](Cn2ccnn2)CN1c1ccc(N2CCN(Cc3ccoc3)CC2)c(F)c1 : 6.99

ED50 reported for this compound Nc1ccc(CN2CCN(c3ccc(N4C[C@H](Cn5ccnn5)OC4=O)cc3F)CC2)cc1 : 6.73

---

test: Clearance in Sprague-Dawley rat at 50 mg/kg, po; assay type: ADME, organism-based; parameters: dose 50 mg/kg, route oral; conditions: in vivo
reported.metric: CL/F
Reply with a number, then the unit it belongs to.

CL/F reported for this compound O=C1O[C@@H](Cn2ccnn2)CN1c1ccc(N2CCN(Cc3ccoc3)CC2)c(F)c1 : 8.86 mL/min/kg

CL/F reported for this compound Nc1ccc(CN2CCN(c3ccc(N4C[C@H](Cn5ccnn5)OC4=O)cc3F)CC2)cc1 : 49 mL/min/kg

CL/F reported for this compound O=C1O[C@@H](Cn2ccnn2)CN1c1ccc(N2CCN(Cc3cccc([N+](=O)[O-])c3)CC2)c(F)c1 : 11.3 mL/min/kg

---

system: Staphylococcus aureus; test: Antimicrobial activity against methicillin-resistant Staphylococcus aureus 05-2 infected in po dosed KunMing SPF mouse; format: functional
reported.metric: ED50 (mg/kg)
Give the number; mg/kg is assumed, so skip it.

Record O=C1O[C@@H](Cn2ccnn2)CN1c1ccc(N2CCN(Cc3ccoc3)CC2)c(F)c1 has Staphylococcus aureus ED50 equal to 7.47

Record O=C1O[C@@H](Cn2ccnn2)CN1c1ccc(N2CCN(Cc3cccc([N+](=O)[O-])c3)CC2)c(F)c1 has Staphylococcus aureus ED50 equal to 7.87

Record O=C1O[C@@H](Cn2ccnn2)CN1c1ccc(N2CCN(Cc3ccco3)CC2)c(F)c1 has Staphylococcus aureus ED50 equal to 12.3

Record CC(=O)NC[C@H]1CN(c2ccc(N3CCOCC3)c(F)c2)C(=O)O1 has Staphylococcus aureus ED50 equal to 8.45

Record Nc1ccc(CN2CCN(c3ccc(N4C[C@H](Cn5ccnn5)OC4=O)cc3F)CC2)cc1 has Staphylococcus aureus ED50 equal to 14.5

---

assay: Cmax in Sprague-Dawley rat at 10 mg/kg, po; assay type: ADME, organism-based; design: dose 10 mg/kg, route oral; settings: in vivo
Provide the reported Cmax of each item.
Give the number; ng/mL is assumed, so skip it.

Cmax reported for this compound O=C1O[C@@H](Cn2ccnn2)CN1c1ccc(N2CCN(Cc3ccoc3)CC2)c(F)c1 : 3040

Cmax reported for this compound O=C1O[C@@H](Cn2ccnn2)CN1c1ccc(N2CCN(Cc3ccc([N+](=O)[O-])o3)CC2)c(F)c1 : 5440

Cmax reported for this compound Nc1ccc(CN2CCN(c3ccc(N4C[C@H](Cn5ccnn5)OC4=O)cc3F)CC2)cc1 : 1200

Cmax reported for this compound O=C1O[C@@H](Cn2ccnn2)CN1c1ccc(N2CCN(Cc3cccc([N+](=O)[O-])c3)CC2)c(F)c1 : 3240

---

test system: Staphylococcus aureus; assay: Antimicrobial activity against methicillin-susceptible Staphylococcus aureus after 16 to 18 hrs by agar dilution method; format: functional
reported.metric: MIC (µg/mL)
Give the number; µg/mL is assumed, so skip it.

Record O=C1O[C@@H](Cn2ccnn2)CN1c1ccc(N2CCN(Cc3ccc([N+](=O)[O-])o3)CC2)c(F)c1 has Staphylococcus aureus MIC equal to 0.06

Record O=C1O[C@@H](Cn2ccnn2)CN1c1ccc(N2CCN(Cc3ccsc3)CC2)c(F)c1 has Staphylococcus aureus MIC equal to 0.06

Record O=C1O[C@@H](Cn2ccnn2)CN1c1ccc(N2CCN(Cc3cccnc3)CC2)c(F)c1 has Staphylococcus aureus MIC equal to 0.125

Record O=C1O[C@@H](Cn2ccnn2)CN1c1ccc(N2CCN(Cc3cccc([N+](=O)[O-])c3)CC2)c(F)c1 has Staphylococcus aureus MIC equal to 0.06

Record Cc1ccc(CN2CCN(c3ccc(N4C[C@H](Cn5ccnn5)OC4=O)cc3F)CC2)s1 has Staphylococcus aureus MIC equal to 0.06

---

tested on: Staphylococcus aureus; experiment: Antimicrobial activity against methicillin-susceptible Staphylococcus aureus after 16 to 18 hrs by agar dilution method; type: functional
Field: label. Allowed values: t (MIC < 0.1 µg/mL) or f (MIC >= 0.1 µg/mL).

Strictly below 0.1 µg/mL in MIC? Cc1ccsc1CN1CCN(c2ccc(N3C[C@H](Cn4ccnn4)OC3=O)cc2F)CC1
f

Strictly below 0.1 µg/mL in MIC? O=C1O[C@@H](Cn2ccnn2)CN1c1ccc(N2CCN(Cc3ccncc3)CC2)c(F)c1
f

Strictly below 0.1 µg/mL in MIC? Nc1ccccc1CN1CCN(c2ccc(N3C[C@H](Cn4ccnn4)OC3=O)cc2F)CC1
f

Strictly below 0.1 µg/mL in MIC? O=C1O[C@@H](Cn2ccnn2)CN1c1ccc(N2CCN(Cc3ccc(Cl)o3)CC2)c(F)c1
f

Strictly below 0.1 µg/mL in MIC? O=Cc1ccc(CN2CCN(c3ccc(N4C[C@H](Cn5ccnn5)OC4=O)cc3F)CC2)cc1
f

Strictly below 0.1 µg/mL in MIC? O=C1O[C@@H](Cn2ccnn2)CN1c1ccc(N2CCN(Cc3cccs3)CC2)c(F)c1
t

Strictly below 0.1 µg/mL in MIC? O=C1O[C@@H](Cn2ccnn2)CN1c1ccc(N2CCN(Cc3ccoc3)CC2)c(F)c1
t

Strictly below 0.1 µg/mL in MIC? O=C1O[C@@H](Cn2ccnn2)CN1c1ccc(N2CCN(Cc3ccccc3[N+](=O)[O-])CC2)c(F)c1
f

Strictly below 0.1 µg/mL in MIC? Nc1ccc(CN2CCN(c3ccc(N4C[C@H](Cn5ccnn5)OC4=O)cc3F)CC2)cc1
t

Sourced from ChEMBL document CHEMBL1151774
